B1: ELF3 (parent)
chain: LSKEYWDCLEGKKSKHAPRGTHLW

- Variants of: B1
- ASSAY_METHOD_TEXT: protein stability index of a GFP-peptide fusion (GPS, HEK-293T) (PSI 1-6); higher = more stable;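 further: lentivirally expressed fusions sorted by FACS into six bins by GFP to DsRed ratio, PSI derived from sequencing read proportions per bin multiplied by bin number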
- CONDITION_SET: c terminus: a fixed tail appended
MEASUREMENT_NAME: protein stability index
Lab note: record the figure alone, no unit after it.

VARIANT_LABEL: R19K
protein stability index: 3.06
--
VARIANT_LABEL: L23V
protein stability index: 2.93

Pending variant:
protein stability index for `H16V` ? 2.94
